inhibition zone (IZ) overview
System: Staphylococcus epidermidis
ASSAY PROCEDURE: Antibacterial activity against Staphylococcus epidermidis assessed as zone of inhibition after 24 to 48 hrs by well diffusion method
Type: functional

Answered cases to consult:
>  <SMILES STRING>
CC1(C)S[C@@H]2[C@H](NC(=O)[C@H](N)c3ccccc3)C(=O)N2[C@H]1C(=O)O

>  <MEAS VALUE>
0 mm

$$$$
>  <SMILES STRING>
CC1(C)S[C@@H]2[C@H](NC(=O)Cc3ccccc3)C(=O)N2[C@H]1C(=O)O

>  <MEAS VALUE>
0 mm

$$$$
>  <SMILES STRING>
CN(C)[C@@H]1C(O)=C(C(N)=O)C(=O)[C@@]2(O)C(O)=C3C(=O)c4c(O)cccc4[C@@](C)(O)[C@H]3C[C@@H]12

>  <MEAS VALUE>
10 mm

$$$$

Now look at this entry.
Which inhibition zone (IZ) is reported for this compound? CC1(C)S[C@@H]2[C@H](NC(=O)[C@H](N)c3ccc(O)cc3)C(=O)N2[C@H]1C(=O)O 2 mm
